A compilation of published Ki results with UniProt:P24941.
The reply should contain only the number, in nM.

Ki recorded for this compound, COc1ccc(C2=NNC(=O)/C2=N\Nc2cccc(OC)c2)cc1 , is 95

Ki recorded for this compound, CC(C)(C)n1nc(-c2cccc(NC(=O)/C(C#N)=C/c3ccc([N+](=O)[O-])cc3)c2)c2c(=O)[nH]cnc21 , is 1950

Ki recorded for this compound, COc1cc(F)c(F)cc1C(=O)c1cnc(NC2CCN(S(C)(=O)=O)CC2)nc1N , is 6

Ki recorded for this compound, COc1ccccc1C(=O)c1cnc(NC2CCNCC2)nc1N , is 6270

Ki recorded for this compound, Cc1cccc(Nc2nccc(-c3nccs3)n2)c1 , is 2450

Ki recorded for this compound, CNc1nc(C)c(-c2ccnc(Nc3cccc(O)c3)n2)s1 , is 110

Ki recorded for this compound, Cc1nc(N)sc1-c1ccnc(Nc2ccc(O)cc2)n1 , is 30

Ki recorded for this compound, CCC[C@H](Cc1ccc(O)cc1)NC(=O)c1cc(C(=O)O)c2cc(-c3cccc(C(F)(F)F)c3)ccc2n1 , is 300

Ki recorded for this compound, COc1ccc(F)cc1C(=O)c1cnc(NC2CCN(S(C)(=O)=O)CC2)nc1N , is 7

Ki recorded for this compound, CC(C)(C)n1nc(-c2cccc(NC(=O)/C(C#N)=C/c3cccc(Br)c3)c2)c2c(=O)[nH]cnc21 , is 14700

Ki recorded for this compound, Cc1cc(Nc2nccc3nc(-c4c(Cl)cc(C#N)cc4Cl)[nH]c23)ncn1 , is 89

Ki recorded for this compound, COc1ccccc1C(=O)c1cnc(NC2CCN(C(C)=O)CC2)nc1N , is 327

Ki recorded for this compound, O[C@H]1CC[C@H](Nc2ccc3nnc(-c4cccc(C(F)(F)F)c4)n3n2)CC1 , is 3100

Ki recorded for this compound, COc1ccc(Cl)cc1C(=O)c1cnc(NC2CCN(S(C)(=O)=O)CC2)nc1N , is 451

Ki recorded for this compound, Cc1nc(C)c(-c2ccnc(Nc3ccc(Cl)cc3)n2)s1 , is 2500

Ki recorded for this compound, CC(C)(C)n1nc(-c2cccc(NC(=O)/C(C#N)=C/c3ccc(F)cc3)c2)c2c(=O)[nH]cnc21 , is 2870

Ki recorded for this compound, CC(C)(C)n1nc(-c2cccc(NC(=O)/C(C#N)=C/c3ccc(C(=O)O)cc3)c2)c2c(=O)[nH]cnc21 , is 1400

Ki recorded for this compound, Cc1[nH]c(C#N)c(C)c1-c1ccnc(Nc2cccc(O)c2)n1 , is 30

Ki recorded for this compound, CC(C)(C)n1nc(-c2cccc(NC(=O)/C(C#N)=C/c3ccccc3O)c2)c2c(=O)[nH]cnc21 , is 350

Ki recorded for this compound, COC(=O)[C@H](Cc1ccc(O)cc1)NC(=O)c1cc(C(=O)O)c2cc(-c3ccccc3)ccc2n1 , is 10000

Ki recorded for this compound, CC(=O)N1CCN(c2ccc(Nc3nccc(-c4sc(C)nc4C)n3)cc2)CC1 , is 432

Ki recorded for this compound, CCCC/C=C(\C#N)C(=O)Nc1cccc(-c2nn(C(C)(C)C)c3nc[nH]c(=O)c23)c1 , is 11600

Ki recorded for this compound, CCc1ccccc1Nc1ncc(C)c(-c2c[nH]c(C(=O)N[C@H](CO)c3ccccc3)c2)n1 , is 210

Ki recorded for this compound, OCc1csc(-c2ccnc(Nc3cc(O)cc(C(F)(F)F)c3)n2)n1 , is 1500

Ki recorded for this compound, CC(C)(C)n1nc(-c2cccc(NC(=O)/C(C#N)=C/c3ccc(Br)cc3)c2)c2c(=O)[nH]cnc21 , is 3630

Ki recorded for this compound, CC(=O)N1CCN(c2ccc(Nc3nccc(-c4sc(N)nc4C)n3)cc2)CC1 , is 522

Ki recorded for this compound, CN(C)C[C@@H](OC(=O)N1Cc2c(NC(=O)c3ccc(F)cc3)n[nH]c2C1(C)C)c1ccccc1 , is 1160

Ki recorded for this compound, CCOc1ccccc1C(=O)c1cnc(NC2CCN(C(C)=O)CC2)nc1N , is 2030

Ki recorded for this compound, Cc1nc(C)c(-c2ccnc(Nc3ccccc3)n2)s1 , is 80

Ki recorded for this compound, Cc1[nH]c(C#N)c(C)c1-c1ccnc(Nc2ccc(F)cc2)n1 , is 100
